test system: Trichoplusia ni; settings: in vivo, 24 h
Description: Toxicity against third-instar larval stage of Trichoplusia ni (cabbage looper) assessed as mortality at 0.25% after 24 hr by contact toxicity bioassay
Lab note: anything with mortality below 3% is marked T; values at 3% or higher are marked F.

[
  {
    "compound": "C=CCc1ccc(OCCC)c(OC)c1",
    "answer_label": "F"
  },
  {
    "compound": "C=CCc1cccc(OCCC)c1OCCCC",
    "answer_label": "T"
  },
  {
    "compound": "C=CCc1cccc(OCC)c1OCCC(C)C",
    "answer_label": "F"
  },
  {
    "compound": "CC(C)CCOc1ccc2c(c1)CC(C)O2 (configuration not stated)",
    "answer_label": "T"
  },
  {
    "compound": "C=CCc1cc(OCC)ccc1OCCC",
    "answer_label": "F"
  },
  {
    "compound": "C=CCc1cc(OC)ccc1OCCC(C)C",
    "answer_label": "F"
  },
  {
    "compound": "C=CCc1cc(OCCC(C)C)ccc1OCC",
    "answer_label": "F"
  }
]

* * *

tested on: Trichoplusia ni; details: in vivo, 24 h
Lab note: anything with mortality below 20% is marked 1; values at 20% or higher are marked -1.

[
  {
    "molecule": "C=CCc1cccc(OCC)c1OCC",
    "answer_label": -1
  },
  {
    "molecule": "C=CCc1cc(OC)ccc1OCCC",
    "answer_label": 1
  },
  {
    "molecule": "C=CCc1cc(OC)ccc1OCC",
    "answer_label": 1
  },
  {
    "molecule": "C=CCc1cccc(OC)c1OCCC(C)C",
    "answer_label": 1
  },
  {
    "molecule": "C=CCc1cc(OCCC)ccc1OC",
    "answer_label": 1
  },
  {
    "molecule": "C=CCc1cccc(OCCC(C)C)c1OCCC(C)C",
    "answer_label": 1
  },
  {
    "molecule": "C=CCc1cccc(OCCC(C)C)c1OCC",
    "answer_label": -1
  },
  {
    "molecule": "C=CCc1cccc(OCCCC)c1OCCCC",
    "answer_label": 1
  },
  {
    "molecule": "C=CCc1cc(OCC)ccc1OCC",
    "answer_label": 1
  },
  {
    "molecule": "C=CCc1cccc(OCCC(C)C)c1OCCC",
    "answer_label": -1
  },
  {
    "molecule": "C=CCc1cccc(OC)c1OC",
    "answer_label": 1
  },
  {
    "molecule": "C=CCc1cccc(OCCCC)c1OCC",
    "answer_label": -1
  },
  {
    "molecule": "C=CCOc1c(CC=C)cccc1OCCC(C)C",
    "answer_label": 1
  },
  {
    "molecule": "C=CCc1ccc(OCC)c(OC)c1 [ETHYLEUGENOL]",
    "answer_label": -1
  },
  {
    "molecule": "C=CCc1ccc(OCCC(C)C)c(OC)c1 [ISOPENTYLEUGENOL]",
    "answer_label": -1
  },
  {
    "molecule": "C=CCc1cccc(OC)c1OCCC",
    "answer_label": -1
  },
  {
    "molecule": "C=CCc1cc(OCC)ccc1OCCC(C)C",
    "answer_label": -1
  },
  {
    "molecule": "C=CCOc1c(CC=C)cccc1OCCCC",
    "answer_label": 1
  },
  {
    "molecule": "C=CCc1cccc(OCC)c1O",
    "answer_label": 1
  },
  {
    "molecule": "C=CCc1cc(OCCC(C)C)ccc1OCCC",
    "answer_label": 1
  },
  {
    "molecule": "C=CCc1cc(OCCCC)ccc1OCC",
    "answer_label": 1
  },
  {
    "molecule": "COc1ccc2c(c1)CC(C)O2 (stereo not drawn)",
    "answer_label": 1
  },
  {
    "molecule": "C=CCc1cccc(OCCCC)c1OCCC(C)C",
    "answer_label": 1
  },
  {
    "molecule": "C=CCc1cccc(OC)c1O",
    "answer_label": 1
  },
  {
    "molecule": "C=CCc1cc(OCCCC)ccc1O",
    "answer_label": 1
  },
  {
    "molecule": "C=CCc1cccc(OCCC(C)C)c1OC",
    "answer_label": 1
  },
  {
    "molecule": "CCCCOc1ccccc1OCCC [1-propoxy-2-butoxybenzene]",
    "answer_label": 1
  },
  {
    "molecule": "CCCOc1ccc(OCC)cc1 [4-ETHOXY-1-PROPOXYBENZENE]",
    "answer_label": 1
  },
  {
    "molecule": "C=CCc1cccc(OCCC)c1OCCC",
    "answer_label": -1
  },
  {
    "molecule": "C=CCc1cccc(OCCCC)c1OCCC",
    "answer_label": -1
  },
  {
    "molecule": "C=CCc1cccc(OCCCC)c1OC",
    "answer_label": 1
  },
  {
    "molecule": "C=CCc1cc(OCC)ccc1O",
    "answer_label": 1
  },
  {
    "molecule": "CCCOc1ccc2c(c1)CC(C)O2 (stereo not drawn)",
    "answer_label": 1
  },
  {
    "molecule": "C=CCc1cc(OCCC)ccc1O",
    "answer_label": 1
  },
  {
    "molecule": "CCN(CC)C(=O)c1cccc(C)c1 [DIETHYLTOLUAMIDE]",
    "answer_label": 1
  },
  {
    "molecule": "C=CCc1cccc(OCCC(C)C)c1OCCCC",
    "answer_label": 1
  },
  {
    "molecule": "C=CCc1cc(OCC)ccc1OC",
    "answer_label": 1
  },
  {
    "molecule": "C=CCc1cc(OCCCC)ccc1OCCC",
    "answer_label": 1
  },
  {
    "molecule": "C=CCc1cc(OCCC(C)C)ccc1O",
    "answer_label": 1
  },
  {
    "molecule": "C=CCOc1c(CC=C)cccc1OCCC",
    "answer_label": 1
  },
  {
    "molecule": "C=CCOc1ccc(OC)cc1 [1-allyloxy-4-methoxybenzene]",
    "answer_label": 1
  },
  {
    "molecule": "C=CCOc1c(CC=C)cccc1OC",
    "answer_label": 1
  },
  {
    "molecule": "C=CCc1cc(OCCC(C)C)ccc1OCCC(C)C",
    "answer_label": -1
  },
  {
    "molecule": "C=CCc1cc(OCCCC)ccc1OCCC(C)C",
    "answer_label": -1
  },
  {
    "molecule": "C=CCc1cccc(OCC)c1OC",
    "answer_label": 1
  },
  {
    "molecule": "C=CCOc1c(CC=C)cccc1OCC",
    "answer_label": 1
  },
  {
    "molecule": "CCCOc1cccc(OCCC(C)C)c1 [3-PROPOXY-1-ISOPENTOXYBENZENE]",
    "answer_label": 1
  },
  {
    "molecule": "C=CCc1ccc(OCCCC)c(OC)c1 [N-BUTYLEUGENOL]",
    "answer_label": 1
  },
  {
    "molecule": "C=CCOc1ccc(CC=C)cc1OC [ALLYLEUGENOL]",
    "answer_label": 1
  },
  {
    "molecule": "C=CCc1cccc(OCC)c1OCCCC",
    "answer_label": 1
  },
  {
    "molecule": "C=CCc1cccc(OCCC(C)C)c1O",
    "answer_label": 1
  },
  {
    "molecule": "C=CCOc1ccccc1OCCCC [1-allyloxy-2-butoxybenzene]",
    "answer_label": 1
  },
  {
    "molecule": "C=CCc1cc(OC)ccc1O",
    "answer_label": 1
  }
]
